Quick list: EC50 per entry.
target: human α7 nAChR stably expressed in a HEK cell line (with human RIC-3) (Homo sapiens); construct: PrecisION hnAChR α7/RIC-3; experiment: Automated patch-clamp electrophysiology functional assay (Assay A), IonFlux HT, whole-cell population patch; format: cell-based; conditions: automated patch-clamp electrophysiology functional assay (Assay A); potency class by EC50; read-out: α7 nAChR Potency
Sequence (P36544 23-502): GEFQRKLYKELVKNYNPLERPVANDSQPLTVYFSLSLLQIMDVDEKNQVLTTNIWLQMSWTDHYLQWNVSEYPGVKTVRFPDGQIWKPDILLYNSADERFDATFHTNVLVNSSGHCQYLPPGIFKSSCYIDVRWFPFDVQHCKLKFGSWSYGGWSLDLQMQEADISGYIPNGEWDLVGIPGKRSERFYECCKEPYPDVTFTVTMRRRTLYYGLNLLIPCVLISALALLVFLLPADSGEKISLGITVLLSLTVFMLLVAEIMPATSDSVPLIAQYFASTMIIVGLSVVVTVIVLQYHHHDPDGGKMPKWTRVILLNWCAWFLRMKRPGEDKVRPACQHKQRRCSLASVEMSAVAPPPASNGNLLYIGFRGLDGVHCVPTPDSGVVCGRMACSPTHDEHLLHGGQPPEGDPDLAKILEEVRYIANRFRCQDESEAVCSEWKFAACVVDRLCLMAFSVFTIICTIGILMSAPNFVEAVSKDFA

In: Would you kindly share the measured EC50 for `CC1(C)[C@H](c2ccc(S(N)(=O)=O)cc2)[C@H]1c1cn(-c2ccccc2)nn1` ?
Out: 500 to 5000 nM

In: Try this molecule too: `CCc1coc([C@@H]2C[C@H]2c2ccc(S(N)(=O)=O)cc2)n1`
Out: 500 to 5000 nM

In: Field entry: `NS(=O)(=O)c1ccc([C@@H]2C[C@H]2c2cnc(C3CCCCC3)o2)cc1`
Out: 100 to 500 nM

In: Field entry: `CC1(C)[C@@H](c2ccc(S(N)(=O)=O)cc2)[C@@H]1c1nnc(C2CCCCC2)s1`
Out: 500 to 5000 nM
